Recorded Test G rating (% disease control) values for a group of compounds are listed next.
- System: Erysiphe graminis f sp. tritici
- RUN DESCRIPTION: Test G: wheat powdery mildew, preventive spray on wheat seedlings
- EXPERIMENTAL CONTEXT: 10 ppm; wheat powdery mildew; 100 = 100% disease control, 0 = no control
QUANTITY: Test G rating (% disease control) (%)

COMPOUND: OC(Cn1cncn1)(C1=NOC(c2ccc(Br)cc2)C1)c1ccc(Cl)cc1 (single isomer, unassigned) [Compound 179]
U: %
RECORDED MEASUREMENT: 91
//
COMPOUND: CC(C)(C)C(O)(Cn1cncn1)C1=NOC(COc2ccc(Cl)cn2)C1 (single isomer, unassigned) [Compound 95]
U: %
RECORDED MEASUREMENT: 100
//
COMPOUND: CC(C)(C)C(O)(Cn1cncn1)C1=NOC(COc2ccc(-n3cc(Br)cn3)cc2)C1 (stereo not shown) [Compound 30]
U: %
RECORDED MEASUREMENT: 100
//
COMPOUND: OC(Cn1cncn1)(C1=NOC(c2ccc(Cl)cc2)C1)c1ccc(Cl)cc1Cl (single isomer, unassigned) [Compound 141]
U: %
RECORDED MEASUREMENT: 84
